# measuredOn: IMP-1 (Serratia marcescens, UniProt P52699)
# Sequence (P52699 whole entry, looked up): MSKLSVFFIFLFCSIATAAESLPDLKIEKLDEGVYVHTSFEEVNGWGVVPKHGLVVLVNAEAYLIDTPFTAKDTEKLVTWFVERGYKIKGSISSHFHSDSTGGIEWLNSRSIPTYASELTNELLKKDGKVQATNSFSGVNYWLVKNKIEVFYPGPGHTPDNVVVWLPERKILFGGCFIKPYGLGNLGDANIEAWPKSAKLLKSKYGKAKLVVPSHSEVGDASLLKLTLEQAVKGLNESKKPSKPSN
# assayProtocol: biochemical
# Assay type: biochemical
# assaySetup: IMP-1 enzyme, CCF2-FA fluorescence assay; read-out: IMP-1 IC50
measuredMetric: IC50 (µM)

compound="NS(=O)(=O)c1cccc(-c2ccc(C3(O)CCNC3)cc2)c1-c1nn[nH]n1 (centres unmarked)" measurementunit=µM measuredvalue=0.102
compound=Nc1nc2ccc(-c3cccc(S(N)(=O)=O)c3-c3nnn[nH]3)cc2s1 measurementunit=µM measuredvalue=0.0498
compound=NCCc1ccc(-c2cccc(S(N)(=O)=O)c2-c2nnn[nH]2)cc1 measurementunit=µM measuredvalue=0.373
compound=NS(=O)(=O)c1cccc(-c2cnc(N3CCNCC3)nc2)c1-c1nn[nH]n1 measurementunit=µM measuredvalue=0.294
compound=CCCc1ccc(-c2cccc(S(N)(=O)=O)c2-c2nnn[nH]2)cn1 measurementunit=µM measuredvalue=0.111
compound=NS(=O)(=O)c1cccc(-c2snc3ncccc23)c1-c1nnn[nH]1 measurementunit=µM measuredvalue=0.34
compound=NS(=O)(=O)c1cccc(-c2ccc(CN3CC[C@H](CO)C3)cc2)c1-c1nnn[nH]1 measurementunit=µM measuredvalue=0.394
compound=NS(=O)(=O)c1cccc(-c2ccc(CNCC3(O)CC3)cc2)c1-c1nnn[nH]1 measurementunit=µM measuredvalue=0.335

###

# measuredOn: NDM-1 (Klebsiella pneumoniae, UniProt C7C422)
# Sequence (C7C422 whole entry, looked up, species assumed): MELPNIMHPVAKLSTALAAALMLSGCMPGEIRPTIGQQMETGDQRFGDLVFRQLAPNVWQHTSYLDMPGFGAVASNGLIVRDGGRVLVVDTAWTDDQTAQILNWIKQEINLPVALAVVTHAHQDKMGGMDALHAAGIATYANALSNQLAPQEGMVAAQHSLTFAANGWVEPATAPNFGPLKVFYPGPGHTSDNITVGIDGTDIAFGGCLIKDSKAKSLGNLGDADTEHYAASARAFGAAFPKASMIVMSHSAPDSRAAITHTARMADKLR
# assayProtocol: biochemical
# Type: biochemical
# assaySetup: NDM-1 enzyme, CCF2-FA fluorescence assay; read-out: NDM-1 IC50
measuredMetric: IC50 (nM)

molecule=NS(=O)(=O)c1c(CCC2CNC2)ccc(-c2ccc(C3CCNCC3)cc2)c1-c1nn[nH]n1 measuredvalue=10.5
molecule=NCCc1ccc(-c2cccc(S(N)(=O)=O)c2-c2nnn[nH]2)cc1 measuredvalue=37.2
molecule=NS(=O)(=O)c1cccc(-c2ccnc3ncccc23)c1-c1nnn[nH]1 measuredvalue=1.65
molecule=Nc1cnc2cc(-c3cccc(S(N)(=O)=O)c3-c3nnn[nH]3)ccc2c1 measuredvalue=2.42
molecule="N=C(N)NC1Cc2ccc(-c3ccc(C(F)(F)F)c(S(N)(=O)=O)c3-c3nn[nH]n3)cc2C1 (stereo not drawn)" measuredvalue=7.13
molecule=CN1CCN(Cc2ccc(-c3cccc(S(N)(=O)=O)c3-c3nnn[nH]3)cc2)CC1 measuredvalue=8.26
molecule=NS(=O)(=O)c1c(C(F)(F)F)ccc(-c2ccc(C3CNC3)cc2)c1-c1nn[nH]n1 measuredvalue=0.875
molecule=NS(=O)(=O)c1cccc(-c2ccc3nccn3c2)c1-c1nn[nH]n1 measuredvalue=2.13
molecule=NS(=O)(=O)c1nccc(-n2cnc3ccccc32)c1-c1nn[nH]n1 measuredvalue=30.2
molecule=Cc1ccc(-c2cc(-c3cccc(C(N)=O)c3)cc(S(N)(=O)=O)c2-c2nn[nH]n2)cc1 measuredvalue=0.637
molecule="CC(NCc1ccc(-c2cccc(S(N)(=O)=O)c2-c2nnn[nH]2)cc1)c1nn[nH]n1 (stereo not drawn)" measuredvalue=4.1
molecule=NS(=O)(=O)c1c(C(F)(F)F)ccc(CC[C@H]2CC[C@@H](N)CC2)c1-c1nn[nH]n1 measuredvalue=47.9
molecule=NCc1nc(-c2ccc(-c3cccc(S(N)(=O)=O)c3-c3nn[nH]n3)cc2)no1 measuredvalue=7.55
molecule=NS(=O)(=O)c1cccc(-c2ccc(CN[C@@H]3CC[C@H](O)C3)cc2)c1-c1nnn[nH]1 measuredvalue=25.2
molecule=NS(=O)(=O)c1cccc(-c2ccc(CNCCc3cn[nH]c3)cc2)c1-c1nnn[nH]1 measuredvalue=12.5
molecule=NS(=O)(=O)c1c(C(F)(F)F)ccc(-c2ccnc3ccccc23)c1-c1nn[nH]n1 measuredvalue=0.581
molecule=NS(=O)(=O)c1c(C(F)(F)F)ccc(-c2cccc3ncccc23)c1-c1nn[nH]n1 measuredvalue=0.192
molecule=Nc1cnc(-c2cccc(S(N)(=O)=O)c2-c2nnn[nH]2)cn1 measuredvalue=8.09
molecule=NS(=O)(=O)c1cccc(-c2cc3cnccc3s2)c1-c1nnn[nH]1 measuredvalue=4.84
molecule=N#Cc1nc2c(-c3ccc(C(F)(F)F)c(S(N)(=O)=O)c3-c3nnn[nH]3)cccc2s1 measuredvalue=0.755
molecule=NS(=O)(=O)c1cccc(-c2ccc(CN3CCOCC3)cc2)c1-c1nnn[nH]1 measuredvalue=2.94
molecule=NS(=O)(=O)c1cccc(-c2ccc3[nH]ncc3c2)c1-c1nn[nH]n1 measuredvalue=0.77
molecule=Cc1ccc(-c2ccc(Cl)c(S(N)(=O)=O)c2-c2nn[nH]n2)cc1 measuredvalue=3.27
molecule=NS(=O)(=O)c1c(CC2CCNCC2)ccc(-c2ccc(C3CCN(CC4CNC4)CC3)cc2)c1-c1nn[nH]n1 measuredvalue=27
molecule=Nc1ncc2ccc(-c3cccc(S(N)(=O)=O)c3-c3nnn[nH]3)cc2n1 measuredvalue=4.74
molecule=COc1nc2cc(Cl)c(-c3cccc(S(N)(=O)=O)c3-c3nn[nH]n3)cc2[nH]1 measuredvalue=32.3
molecule="NC(=O)C1CCN(Cc2ccc(-c3cccc(S(N)(=O)=O)c3-c3nnn[nH]3)cc2)C1 (stereo not drawn)" measuredvalue=4.38
molecule=NS(=O)(=O)c1cccc(-c2ccc(CNCC3(O)CC3)cc2)c1-c1nnn[nH]1 measuredvalue=22.2
molecule=Nc1nc2cccc(-c3cccc(S(N)(=O)=O)c3-c3nn[nH]n3)c2[nH]1 measuredvalue=0.683
molecule=NS(=O)(=O)c1c(Cl)ccc(-c2ccc(C3CCNCC3)cc2)c1-c1nn[nH]n1 measuredvalue=5.51
molecule="NC1CCC(Cc2ccc(-c3ccnc4ccccc34)c(-c3nn[nH]n3)c2S(N)(=O)=O)CC1 (stereo not drawn)" measuredvalue=0.977
molecule=NS(=O)(=O)c1nccc(N2CCC(O)CC2)c1-c1nnn[nH]1 measuredvalue=103
molecule="NS(=O)(=O)c1cccc(-c2ccc(CN3CCC3C(=O)O)cc2)c1-c1nnn[nH]1 (stereo not drawn)" measuredvalue=24.6
